target: T1, Recombinant human IL-1beta (rhIL-1b) (human, UniProt P01584 117-269); test: Biacore high-res, mAb amine-coupled, 23C
T1 construct: R&D Systems Cat. No. 201-LB/CF; also called IL-1β; human IL-1β
experimental.readout: Kd (nM)
Write the answer as a number in nM, unit excluded.

Request: Kd for 5.5.1 (antibody, IgG4, V domains shown, lambda; also called mAb 5.5.1; Ab 5.5.1) VH: QVQLVESGGGVVQPGRSLRLSCAASGFTFSSYGMHWVRQAPGKGLEWVAVIWYDGDNKYYADSVQGRFTISRDNSKNTLYLQMNSLRPEDTAVYYCARERSSSWYFDYWGQGTLVTVSS VL: QSALTQPASVSGSPGQSITISCTGTSSDVGSYNLVSWYQQHPGKAPKLMIYEVSKRPSGISNRFSGSKSGNTASLTISGLQAEDEADYYCCSYAGSSTWVFGGGTKLTVL ?
Result: 0.0447

Data origin, for the record: patent US20070065439A1
